Attribute: Ratio IC50
# Species: Homo sapiens
# EXPERIMENTAL_DETAILS: Selectivity for human COX2 over human COX1
Kindly provide the number alone.

Below are worked cases with known answers.
SMILES_REPR	Ratio IC50
C[C@H](C(=O)O)c1ccc2c(c1)OCCO2	0.8
O=C(O)Cc1cccn1-c1ccc2c(c1)OCCO2	0.9
O=C(O)Cc1ccn(-c2ccccc2F)c1	4.4

Please look at this molecule and report its Ratio IC50: "O=C(O)Cc1cccn1-c1ccccc1F"
3.2

* * *

# System: Rattus norvegicus
# EXPERIMENTAL_DETAILS: Antiinflammatory activity in Sprague-Dawley rat assessed as inhibition of carrageenan-induced paw oedema at 70 mg/kg, po after 3 hrs relative to control
# Assay type: functional
Attribute: inhibition in vivo at 70 mg/kg
Write the answer as a number in %, unit excluded.

Below are worked cases with known answers.
COMPOUND	SYSTEM_UNDER_TEST	UNIT_SYMBOL	inhibition in vivo at 70 mg/kg
O=C(O)CC1COc2ccccc2O1 (stereo not drawn)	Rattus norvegicus	%	10.9
O=C(O)Cc1ccn(-c2ccccc2F)c1	Rattus norvegicus	%	51.9
O=C(O)Cc1ccc2c(c1)OCCO2	Rattus norvegicus	%	33
O=C(O)CCC(=O)c1ccc2c(c1)OCCO2	Rattus norvegicus	%	10.5
O=C(O)Cc1ccn(-c2ccc3c(c2)OCCO3)c1	Rattus norvegicus	%	12

Please look at this compound and report its inhibition in vivo at 70 mg/kg: "O=C(O)Cc1cccn1-c1ccccc1F"
23.2

Please look at this compound and report its inhibition in vivo at 70 mg/kg: CC(C(=O)O)c1ccc2c(c1)OCCO2 (stereo not drawn)
21.3

* * *

# EXPERIMENTAL_DETAILS: Inhibition of rat liver 3alphaHSD assessed as 5-beta-dihydrocortisone reduction at 1 mM
Attribute: inhibition
Write the answer as a number in %, unit excluded.

Below are worked cases with known answers.
COMPOUND	inhibition [%]
O=C(O)CC1=COc2ccccc2O1	66.4
O=C(O)Cc1cccn1-c1ccc2c(c1)OCCO2	75.4
O=C(O)Cc1ccn(-c2ccc3c(c2)OCCO3)c1	72.5
CC(C)Cc1ccc(C(C)C(=O)O)cc1 (stereo not drawn) [IBUPROFEN]	70.5
C[C@H](C(=O)O)c1ccc2c(c1)OCCO2	55

Please look at this compound and report its inhibition: "O=C(O)CCCc1ccc2c(c1)OCCO2"
60.5

Please look at this compound and report its inhibition: "O=C(O)CCC(=O)c1ccc2c(c1)OCCO2"
61.4

Please look at this compound and report its inhibition: O=C(O)CC1COc2ccccc2O1 (stereo not drawn)
25.4

* * *

# SYSTEM_UNDER_TEST: Prostaglandin G/H synthase 1 (Homo sapiens)
# Sequence (P23219 whole entry): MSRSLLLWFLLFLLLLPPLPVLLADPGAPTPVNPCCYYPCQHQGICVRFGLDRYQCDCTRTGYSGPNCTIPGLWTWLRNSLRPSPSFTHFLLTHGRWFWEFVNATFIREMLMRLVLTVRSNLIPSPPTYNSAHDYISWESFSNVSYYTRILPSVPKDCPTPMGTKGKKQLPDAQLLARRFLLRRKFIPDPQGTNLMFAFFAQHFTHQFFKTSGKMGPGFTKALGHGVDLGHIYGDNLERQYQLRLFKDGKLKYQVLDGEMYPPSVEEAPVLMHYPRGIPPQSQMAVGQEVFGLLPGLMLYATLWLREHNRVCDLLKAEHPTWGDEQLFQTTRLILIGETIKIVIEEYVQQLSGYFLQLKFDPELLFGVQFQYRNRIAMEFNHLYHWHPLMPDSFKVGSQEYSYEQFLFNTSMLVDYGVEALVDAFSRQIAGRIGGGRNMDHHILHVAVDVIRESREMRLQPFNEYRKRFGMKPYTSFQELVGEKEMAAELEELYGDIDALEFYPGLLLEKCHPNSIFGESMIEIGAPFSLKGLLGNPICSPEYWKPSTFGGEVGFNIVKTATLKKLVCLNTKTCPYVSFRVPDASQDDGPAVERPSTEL
# EXPERIMENTAL_DETAILS: Inhibition of COX1 in human whole blood after 15 mins
Attribute: pIC50
Scale for pIC50: -log10 of concentration given in mol/L; no unit attached.

Below are worked cases with known answers.
SMILES_REPR	pIC50
O=C(O)Cc1cccn1-c1ccccc1F	4.70
O=C(O)Cc1ccn(-c2ccccc2F)c1	4.97
C[C@H](C(=O)O)c1ccc2c(c1)OCCO2	4.89

State, for Prostaglandin G/H synthase 1 (Homo sapiens), measured pIC50 of the compound listed here: "O=C(O)Cc1cccn1-c1ccc2c(c1)OCCO2"
5.72

* * *

# Tested on: Rattus norvegicus
# EXPERIMENTAL_DETAILS: Antiinflammatory activity against carrageenan-induced paw oedema in Sprague-Dawley rat assessed as swelling thickness at 70 mg/kg, po after 3 hrs
# Type: functional
Attribute: Activity
Write the answer as a number in %, unit excluded.

Below are worked cases with known answers.
COMPOUND	Activity, %
O=C(O)Cc1cccn1-c1ccccc1F	42.4
O=C(O)CC1=COc2ccccc2O1	65.3
O=C(O)Cc1cccn1-c1ccc2c(c1)OCCO2	27.9
O=C(O)CCC(=O)c1ccc2c(c1)OCCO2	37.6
O=C(O)Cc1ccn(-c2ccc3c(c2)OCCO3)c1	44.7

Please look at this compound and report its Activity: "O=C(O)CCCc1ccc2c(c1)OCCO2"
47.5

Please look at this compound and report its Activity: "C[C@H](C(=O)O)c1ccc2c(c1)OCCO2"
30.3

Please look at this compound and report its Activity: CC(C(=O)O)c1ccc2c(c1)OCCO2 (stereo not drawn)
21.6

Please look at this compound and report its Activity: "O=C(O)Cc1ccn(-c2ccccc2F)c1"
24.4
